Below are pIC50 values for UniProtKB P23743 collected from several publications.
pIC50: −log10 of the molar value.

For orientation, consider the following solved cases.
# COMPOUND, pIC50
rows = [
    ("CC[C@H]1CN(C(C)c2ccc(F)cc2C2CC2)[C@H](CC)CN1c1cc(=O)n(C)c2cn(CC#N)nc12 (stereo partly drawn)", "< 5.00"),
    ("CC(c1ccc2nccnc2c1)N1C[C@H](C)N(c2cc(=O)n(C)c3cn(CC(N)=O)nc23)C[C@H]1C (stereo partly drawn)", "< 3.82"),
    ("CC(C)(C#N)c1nnc(-c2ccc3c(c2)N(Cc2ccc(-c4cc(C(F)(F)F)ccn4)cc2)C(=O)[C@@H](N)CS3(=O)=O)o1", "< 4.20"),
    ("CCn1c(CC#N)nc2c(N3C[C@@H](C)N(C(C)c4cccc(N5CC6(COC6)C5)c4)C[C@@H]3C)nc(=O)n(C)c21 (stereo partly drawn)", "< 3.82"),
    ("CC(c1ccc2nccnc2c1)N1C[C@H](C)N(c2cc(=O)n(C)c3c2nc(CC#N)n3C)C[C@H]1C (single isomer, unassigned)", "< 5.00"),
]

Data request: Return pIC50 measured with UniProtKB P23743 given this compound: CC(c1ccc2c(n1)OC(C)(C)CO2)N1C[C@H](C)N(c2nc(=O)n(C)c3c2nc(CC#N)n3CC(F)F)C[C@H]1C (stereo partly drawn)
Data returned: < 3.82

Data request: Return pIC50 measured with UniProtKB P23743 given this compound: CC(c1ccc2nccnc2c1)N1C[C@H](C)N(c2cc(=O)n(C)n3cc(CS(C)(=O)=O)nc23)C[C@H]1C (stereo partly drawn)
Data returned: < 5.00

Data request: Return pIC50 measured with UniProtKB P23743 given this compound: CC[C@H]1CN(C(C)c2cn(CC)c(C)n2)[C@H](CC)CN1c1cc(=O)n(C)c2cn(CC#N)nc12 (stereo partly drawn)
Data returned: < 5.00

* * *

Below are IC50 values for DGKα (Homo sapiens) collected from several publications.
Report the figure in µM without appending any unit label.

For orientation, consider the following solved cases.
# COMPOUND, VALUE
data = [
    ("CC[C@@H]1CN(c2cc(=O)n(C)n3cc(CC#N)nc23)[C@@H](C)CN1C(C)c1ccc2cc(F)sc2n1 (stereo partly shown)", 0.026),
    ("CCn1c(CC#N)nc2c(N3C[C@@H](C)N(C(C)c4ccc5sc(C(C)C)nc5c4)C[C@@H]3C)nc(=O)n(C)c21 (stereo partly shown)", 49.6),
    ("Cc1cc(C)n(-c2ccc(CN3C(=O)[C@@H](N)CS(=O)(=O)c4ccc(-c5nnc(C(C)(C)C)o5)cc43)cc2)n1", 1.86),
]

Data request: Return IC50 measured with DGKα (Homo sapiens) given this compound: CCn1c(CC#N)nc2c(N3C[C@@H](C)N(C(C)c4cccc(OC(F)(F)F)c4)C[C@@H]3C)nc(=O)n(C)c21 (stereo partly shown)
Data returned: 51.2

* * *

pIC50: −log10 of the molar value.
Below are pIC50 values for DGKα (Homo sapiens) collected from several publications.
Assign class 1 to entries whose pIC50 meets or exceeds 5; assign class 0 to the rest.

Recorded results for 3 compounds are shown here.
# COMPOUND, CATEGORY
measured = [
    ("CC(c1ccc(F)cc1C(F)F)N1C[C@H](C)N(c2cc(=O)n(C)c3cn(CC#N)nc23)C[C@H]1C (some centres unmarked)", "class 0"),
    ("N[C@H]1CS(=O)(=O)c2ccc(-c3nnc(N4CCC(F)(F)CC4)o3)cc2N(Cc2ccc(-c3noc(C(F)(F)F)n3)cc2)C1=O", "class 1"),
    ("CCn1c(CC#N)nc2c(N3C[C@@H](C)N(C(C)c4cc(F)cc(C(F)F)c4)C[C@@H]3C)nc(=O)n(C)c21 (some centres unmarked)", "class 0"),
]

With those in mind, consider the next compound.
Data request: Please tell me: is the compound CCn1c(CC#N)nc2c(N3C[C@@H](C)N(C(C)c4cccc(C5CC5)c4)C[C@@H]3C)nc(=O)n(C)c21 (some centres unmarked) at or over 5 in terms of pIC50?
Data returned: class 0
